Experiment Description: Funnel flow (Erweka flow tester, PE 2.9.16)
Type: physicochemical
Measurement Parameters: standardized funnel; 100 g raw materials, 20 g mixtures
Result Type: Flow (s)

{"Molecular String": "OC[C@H]1O[C@@](CO)(O[C@H]2O[C@H](CO)[C@@H](O)[C@H](O)[C@H]2O)[C@@H](O)[C@@H]1O", "Flow [s]": 22}

P = OC[C@@H](O)[C@@H](O)[C@H](O)[C@H](O)CO
Q = OC[C@@H](O)[C@@H](O)[C@H](O)[C@@H](O)CO
Flow comparison. Which is larger, P or Q ? # answer = label of selected item
P

From: patent US10960015B2
